Reference source: PubChem BioAssay (NCI)

For each entry below, report its TGI value.
- Test system: PC-3 prostate
- assay-procedure: NCI tumour cell line growth inhibition, 48 h
Where a SMILES comes first, the peptide text is derived from it. The star is where a group is joined. Cbz = O=C(OCc1ccccc1)*; Boc = CC(C)(C)OC(=O)*; OSu = O=C1CCC(=O)N1O*; Bn = c1ccc(C*)cc1

-- ask Tell us which TGI value is on record for CC1CCC2(C(=O)O)CCC3(C)C(=CCC4C5(C)CCC(O)C(C)(C)C5CCC43C)C2C1C (configuration not stated)
-- reply 29.3 µM

-- ask Give the measured TGI for CC(C)(C)OC(=O)NC(Cc1ccc(OCc2ccccc2)cc1)C(=O)NC(CCCCNC(=O)OCc1ccccc1)C(=O)ON1C(=O)CCC1=O (configuration not stated) (Boc-Tyr(Bn)-Lys(Cbz)-OSu; configuration not given here)
-- reply 57.7 µM

-- ask For the compound `CC(=O)Nc1ccc(-c2nc3ccccc3s2)cc1I` , give its reported TGI.
-- reply > 100 µM

-- ask Give the measured TGI for CC1=C/C(=N\O)C(C(O)(C(F)(F)F)C(F)(F)F)C(C)(C)C1 (configuration not stated)
-- reply > 10 µM

-- ask Answer with the recorded TGI for the compound listed here: `COC(=O)[C@@H]1CN(C(C)=O)C(=O)N1C(=O)OCc1ccccc1`
-- reply > 100 µM

-- ask For the compound CC1Oc2c(c(=O)oc3ccccc23)[C@@]1(C)CC1C[C@H](C)C(=O)O1 (some centres not stated) , give its reported TGI.
-- reply > 100 µM

-- ask Name the recorded TGI of the item S=C1CC(c2ccccc2)Sc2ccccc2N1 (configuration not stated) in your answer.
-- reply > 100 µM

-- ask Tell us which TGI value is on record for `Cc1ccc(-c2cc(C(F)(F)F)nn2-c2ccc(S(N)(=O)=O)cc2)cc1`
-- reply 34.1 µM

-- ask Tell us which TGI value is on record for CCN1C(=O)C(C)S/C1=N\NC(=O)CSc1nc2ccccc2c(=O)n1CC (configuration not stated)
-- reply > 100 µM

-- ask Tell me measured TGI for `NC(=O)c1ccc(NN=O)nc1` please.
-- reply > 100 µM

-- ask Identify TGI associated with the compound `COC(=O)[C@]12CC[C@@H](C)[C@H](C)[C@@H]1C1=CC[C@@H]3[C@@]4(C)C(C=O)=C[C@@](C)(COC(C)=O)C4=CC[C@@]3(C)[C@]1(C)CC2`
-- reply 13.9 µM

-- ask Answer with reported TGI of `O=C1c2nsnc2C(=O)c2c(F)c(F)c(F)c(F)c21`
-- reply 3.1 µM

-- ask Fill in TGI for record `COc1ccc(/C(O)=C/c2nc3cccnc3nc2/C=C(\O)c2ccc(OC)cc2)cc1`
-- reply > 100 µM

-- ask Output measured TGI for this item: `Cc1nc(N/N=C/c2ccccc2Cl)[nH]c(=O)c1CCO`
-- reply > 100 µM

-- ask Annotate the compound `O=C1Nc2c(C(F)(F)F)cccc2[C@@]1(c1ccc(O)cc1)c1ccc(OC(F)(F)F)cc1` with its measured TGI.
-- reply 0.388 µM

-- ask Supply reported TGI belonging to this compound: `O=CNc1ncn[nH]1`
-- reply > 100 µM

-- ask Provide only the value of recorded TGI for `COc1ccc2cc(C(=O)O)ccc2c1OC`
-- reply > 100 µM

-- ask Answer with the recorded TGI of `CCCCCCOc1ccc(C(=O)NO)cc1` only.
-- reply 35.2 µM

-- ask Supply recorded TGI for `CC(C)=NNC=N/C(C#N)=C(\N)C#N` here.
-- reply > 100 µM

-- ask Supply measured TGI of `c1cc2[nH]ncc2cc1-c1nc2ccc3[nH]ncc3c2c2c1CCCC2` in your reply.
-- reply 21.5 µM

-- ask Return TGI (reported value) for this compound: `C[C@H](Nc1ncnc2nc[nH]c12)c1cc2ccc(F)cc2nc1-c1ccccn1`
-- reply > 100 µM

-- ask Using the record for CC(SC(=S)N1CCOCC1)C(=O)Nc1nnc(-c2ccccc2)o1 (configuration not stated) , state its measured TGI.
-- reply > 100 µM

-- ask Consider the compound `O=C(c1ccccc1)c1ccc(-n2c3ccccc3c3ccc4c(c32)C(=O)C=CC4=O)cc1` and give its recorded TGI.
-- reply 25.8 µM

-- ask Identify measured TGI corresponding to Cc1ccc(C(SCC(N)C(=O)O)(c2ccc(C)cc2)c2ccc(C)cc2)cc1 (configuration not stated)
-- reply 20.1 µM

-- ask // fetch TGI given entry `CN(C)c1ccc(N=C2C=CC(=[N+](C)C)C=C2)cc1`
-- reply 22.7 µM

-- ask Name the recorded TGI of the compound listed here: Nc1ccn(C2CCC(CO)O2)c(=S)n1 (configuration not stated)
-- reply > 100 µM

-- ask Assign TGI to the following record: `COc1cc(OC)c2nc(C)c3c(c2c1)NCC3`
-- reply 20 µM
